Assay: Cytotoxicity against African green monkey Vero cells
Type: cell-based
Conditions: chlorocebus sabaeus
measurementType: CC50 (µM)
Kindly answer with a numeric value in µM, unit omitted.

Req: What value of CC50 has been recorded for this entry: COc1cc2c3c(c4cc(OC)c(OC)cc4c2cc1OC)CN1CCC[C@H]1C3.O=C(O)C[C@@H](O)C(=O)O
Resp: 26.2

---

Tested on: SARS-CoV-2
Experiment: Antiviral activity against SARS-CoV-2 C-Tan-nCoV Wuhan strain 01 infected in African green monkey Vero cells assessed as inhibition of viral replication measured after 48 hrs by RT-qPCR method
Type: functional, organism-based
Conditions: Severe acute respiratory syndrome coronavirus 2, C-Tan-nCoV Wuhan strain 01, Vero
measurementType: EC50 (nM)
Kindly answer with a numeric value in nM, unit omitted.

{"smilesText": "CCC(CC)COC(=O)[C@H](C)N[P@](=O)(OC[C@H]1O[C@@](C#N)(c2ccc3c(N)ncnn23)[C@H](O)[C@@H]1O)Oc1ccccc1", "EC50 / nM": 800}

# next compound below
Req: What value of EC50 has been recorded for this entry: COc1cc2c3c(c4cc(OC)c(OC)cc4c2cc1OC)CN1CCC[C@H]1C3.O=C(O)C[C@@H](O)C(=O)O
Resp: 30
